System: Escherichia coli
Experiment: Antibacterial activity against Escherichia coli ATCC 25922 after 18 to 24 hr by broth microdilution method
Format: functional
Below, each entry is listed with its recorded MIC.
Give the number; µg/mL is assumed, so skip it.

Some compounds with recorded MIC:
* CN(N)S(=O)(=O)c1ccccc1 | 125
* CN(C)[C@@H]1C(O)=C(C(N)=O)C(=O)[C@@]2(O)C(O)=C3C(=O)c4c(O)cccc4[C@@](C)(O)[C@H]3C[C@@H]12 [TETRACYCLINE] | 0.075
* O=S(=O)(NCCO)c1ccccc1 | 1000
* CN(/N=C/c1cccs1)S(=O)(=O)c1ccccc1 | 125
* NCC(O)CNS(=O)(=O)c1ccccc1 (configuration not stated) | 1000
* C/C(=N\N(C)S(=O)(=O)c1ccccc1)c1ccccc1O | 1000

# ---- query compound ----
Quick one: give measured MIC for "CN(/N=C/c1c(O)ccc2ccccc12)S(=O)(=O)c1ccccc1"
500

* * *

System: Pseudomonas fluorescens
Experiment: Antibacterial activity against Pseudomonas fluorescens ATCC 49838 at 140 ug/disk after 18 to 24 hr by disk diffusion method
Assay type: functional
Conditions: read-out: DIZ
valueKind: zone of inhibition at 140 µg/disc (mm)
// units = mm; emit number, no label

* C/C(=N\N(C)S(=O)(=O)c1ccccc1)c1ccccc1O | 11
* NCC(O)CNS(=O)(=O)c1ccccc1 (stereo unspecified) | 0
* CN(N)S(=O)(=O)c1ccccc1 | 22

Quick one: give measured zone of inhibition at 140 µg/disc for "CN(/N=C/c1c(O)ccc2ccccc12)S(=O)(=O)c1ccccc1"
26

Identify zone of inhibition at 140 µg/disc associated with the compound "CN(/N=C/c1cccs1)S(=O)(=O)c1ccccc1"
25

Recall and state the measured zone of inhibition at 140 µg/disc for "O=S(=O)(NCCO)c1ccccc1" .
0

* * *

System: Enterococcus faecalis
Experiment: Antibacterial activity against Enterococcus faecalis ATCC 29212 after 18 to 24 hr by broth microdilution method
Type: functional
Threshold 500 µg/mL. MIC below it: T. MIC at it or above: F.

• CN(C)[C@@H]1C(O)=C(C(N)=O)C(=O)[C@@]2(O)C(O)=C3C(=O)c4c(O)cccc4[C@@](C)(O)[C@H]3C[C@@H]12 [TETRACYCLINE] = T
• NCC(O)CNS(=O)(=O)c1ccccc1 (stereo not drawn) = F
• COc1cc(Cc2cnc(N)nc2N)cc(OC)c1OC [TRIMETHOPRIM] = T
• O=S(=O)(NCCO)c1ccccc1 = F
• CN(/N=C/c1cccs1)S(=O)(=O)c1ccccc1 = F
• CN(N)S(=O)(=O)c1ccccc1 = T

Continue with the next compound.
Lab note: confirm whether the reported MIC for this compound is below 500 µg/mL, equality not counting. compound: "C/C(=N\N(C)S(=O)(=O)c1ccccc1)c1ccccc1O"
F

* * *

System: Klebsiella aerogenes
Test: Antibacterial activity against Enterobacter aerogenes ATCC 13048 at 140 ug/disk after 18 to 24 hr by disk diffusion method
Format: functional
Settings: read-out: DIZ
valueKind: zone of inhibition at 140 µg/disc (mm)
Quick note: give the figure in mm, leave out the unit.

• CN(/N=C/c1cccs1)S(=O)(=O)c1ccccc1 = 17

Using the record for NCC(O)CNS(=O)(=O)c1ccccc1 (stereo unspecified) , state its measured zone of inhibition at 140 µg/disc.
0

Kindly indicate its recorded zone of inhibition at 140 µg/disc. Item: "CN(N)S(=O)(=O)c1ccccc1"
16

Please indicate zone of inhibition at 140 µg/disc recorded for "CN(/N=C/c1c(O)ccc2ccccc12)S(=O)(=O)c1ccccc1"
18

Provide zone of inhibition at 140 µg/disc value for the following molecule: "O=S(=O)(NCCO)c1ccccc1"
0

In one line, give reported zone of inhibition at 140 µg/disc of the entry "C/C(=N\N(C)S(=O)(=O)c1ccccc1)c1ccccc1O" .
5
